Record form. Attribute: IC50. Fill in for each entry.
Molecular target: MKNK1 (Homo sapiens, UniProt Q9BUB5, T385D)
Construct: GST (N); purchased Carna Biosciences 02-145; host or cells: insect cells (baculovirus expression system)
Sequence (Q9BUB5 1-424 isoform Q9BUB5-2 T344D): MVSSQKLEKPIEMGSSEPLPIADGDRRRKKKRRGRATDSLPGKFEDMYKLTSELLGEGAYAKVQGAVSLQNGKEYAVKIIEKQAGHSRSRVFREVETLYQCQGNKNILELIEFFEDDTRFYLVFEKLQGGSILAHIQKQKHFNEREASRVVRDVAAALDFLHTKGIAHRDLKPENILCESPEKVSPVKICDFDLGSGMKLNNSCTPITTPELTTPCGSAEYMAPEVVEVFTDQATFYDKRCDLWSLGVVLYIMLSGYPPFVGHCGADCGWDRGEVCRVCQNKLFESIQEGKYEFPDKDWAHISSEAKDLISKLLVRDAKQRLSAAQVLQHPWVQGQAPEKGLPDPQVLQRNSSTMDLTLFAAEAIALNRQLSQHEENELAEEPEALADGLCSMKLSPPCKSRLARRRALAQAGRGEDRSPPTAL
Assay: MKNK1 kinase assay (MKNK1 TR-FRET assay)
Format: biochemical
Settings: Table 1b; 10 μM ATP, 15 min preincubation

Identify measured IC50 corresponding to COC[C@H]1CCCN1c1cccc2oc(-c3cnc4ccc(OCCCS(C)(=O)=NC#N)nn34)cc12 (mixture of isomers)
2.4 nM

Identify measured IC50 corresponding to C[C@@H]1CN(c2cccc3oc(-c4cnc5ccc(OCC(F)(F)F)nn45)cc23)CCN1
6.4 nM

Identify measured IC50 corresponding to C[C@H](N)COc1ccc2ncc(-c3cc4c(N5CCOC[C@@H]5C)cccc4o3)n2n1
24.2 nM

Identify measured IC50 corresponding to CC1(C)CN(c2cccc3oc(-c4cnc5ccc(OCCCS(C)(=O)=O)nn45)cc23)CCN1
3.5 nM

====

Record form. Attribute: IC50. Fill in for each entry.
Molecular target: MKNK1 (Homo sapiens, UniProt Q9BUB5, T385D)
Construct: GST (N); purchased Carna Biosciences 02-145; host or cells: insect cells (baculovirus expression system)
Assay: MKNK1 kinase assay (MKNK1 TR-FRET assay)
Type: biochemical
Settings: Table 1a; 10 μM ATP, 15 min preincubation
Field format: number, assumed nM, no unit text.

Identify measured IC50 corresponding to O=C(CC1CC1)N1CCC[C@H]1CCOc1ccc2ncc(-c3cc4ccccc4o3)n2n1
2.1

Identify measured IC50 corresponding to O=C1CCCN1CCCOc1ccc2ncc(-c3cc4ccccc4o3)n2n1
12.6

Identify measured IC50 corresponding to O=C(CC1CC1)NCCOc1ccc2ncc(-c3cc4ccccc4o3)n2n1
7.3

Identify measured IC50 corresponding to CC(C)CC(=O)NCCOc1ccc2ncc(-c3cc4ccccc4o3)n2n1
4.8

Identify measured IC50 corresponding to CC(=O)NC[C@H](Oc1ccc2ncc(-c3cc4ccccc4o3)n2n1)c1cccnc1
17.9

Identify measured IC50 corresponding to COc1cccc2oc(-c3cnc4ccc(OC[C@@H]5CCC(=O)N5)nn34)cc12
4.5

Identify measured IC50 corresponding to Cn1cc(C(=O)N2CCC[C@H]2CCOc2ccc3ncc(-c4cc5ccccc5o4)n3n2)cn1
1.8

Identify measured IC50 corresponding to O=C1CC[C@H](COc2ccc3ncc(-c4cc5ccccc5o4)n3n2)N1
3.3

Identify measured IC50 corresponding to O=C(Cc1ccccc1)NCCOc1ccc2ncc(-c3cc4ccccc4o3)n2n1
6

Identify measured IC50 corresponding to O=C(c1ccc[nH]1)N1CCC[C@H]1CCOc1ccc2ncc(-c3cc4ccccc4o3)n2n1
2.9

Identify measured IC50 corresponding to O=C(C1CCCO1)N1CCC[C@H]1CCOc1ccc2ncc(-c3cc4ccccc4o3)n2n1 (stereo partly shown)
2.4

Identify measured IC50 corresponding to O=C1NCCN1CCOc1ccc2ncc(-c3cc4ccccc4o3)n2n1
7.1

Identify measured IC50 corresponding to O=C(c1ccccn1)N1CCC[C@H]1CCOc1ccc2ncc(-c3cc4ccccc4o3)n2n1
3.5

Identify measured IC50 corresponding to Cc1ccccc1C(=O)NCCOc1ccc2ncc(-c3cc4ccccc4o3)n2n1
4.6

Identify measured IC50 corresponding to O=C(NCCOc1ccc2ncc(-c3cc4ccccc4o3)n2n1)c1ccccn1
15.1

Identify measured IC50 corresponding to CC(=O)NCCOc1ccc2ncc(-c3cc4ccccc4o3)n2n1
9.1

Identify measured IC50 corresponding to COC(=O)N1CCC[C@H]1CCOc1ccc2ncc(-c3cc4ccccc4o3)n2n1
3.2

Identify measured IC50 corresponding to O=C(c1ccco1)N1CCC[C@H]1CCOc1ccc2ncc(-c3cc4ccccc4o3)n2n1
1.1

Identify measured IC50 corresponding to O=C(NCCOc1ccc2ncc(-c3cc4ccccc4o3)n2n1)C1CCCO1 (stereo not shown)
6.7

Identify measured IC50 corresponding to CC(C)(C)C(=O)N1CCC[C@H]1CCOc1ccc2ncc(-c3cc4cc(Cl)ccc4o3)n2n1
26

Identify measured IC50 corresponding to O=C(C1CC1)N1CCC[C@H]1CCOc1ccc2ncc(-c3cc4ccccc4o3)n2n1
1

Identify measured IC50 corresponding to CC(C)(C)NC(=O)COc1ccc2ncc(-c3cc4ccccc4o3)n2n1
17

Identify measured IC50 corresponding to O=C(NCCOc1ccc2ncc(-c3cc4ccccc4o3)n2n1)c1cccs1
4.7

Identify measured IC50 corresponding to CC(=O)NC(COc1ccc2ncc(-c3cc4ccccc4o3)n2n1)c1cccnc1 (stereo not shown)
16.4

Identify measured IC50 corresponding to CCCCC(=O)NCCOc1ccc2ncc(-c3cc4ccccc4o3)n2n1
5.4

Identify measured IC50 corresponding to CCC(C)C(=O)NCCOc1ccc2ncc(-c3cc4ccccc4o3)n2n1 (stereo not shown)
5.6

Identify measured IC50 corresponding to O=C(N[C@H]1C[C@H](Oc2ccc3ncc(-c4cc5ccccc5o4)n3n2)C1)C(F)(F)F
15.7

Identify measured IC50 corresponding to COc1ccc2oc(-c3cnc4ccc(OC[C@@H]5CCC(=O)N5)nn34)cc2c1
3.7

Identify measured IC50 corresponding to CC(C)(C)CC(=O)NCCOc1ccc2ncc(-c3cc4ccccc4o3)n2n1
4.6

Identify measured IC50 corresponding to O=C(C1CCC1)N1CCC[C@H]1CCOc1ccc2ncc(-c3cc4ccccc4o3)n2n1
2

Identify measured IC50 corresponding to O=C(c1ccccc1)N1CCOC(COc2ccc3ncc(-c4cc5ccccc5o4)n3n2)C1 (stereo not shown)
4.7

Identify measured IC50 corresponding to CC(C)CC(=O)N1CCC[C@H]1CCOc1ccc2ncc(-c3cc4ccccc4o3)n2n1
2.2

Identify measured IC50 corresponding to O=C1NC(COc2ccc3ncc(-c4cc5ccccc5o4)n3n2)CO1 (stereo not shown)
5.6

Identify measured IC50 corresponding to CC(=O)N1CCOC(COc2ccc3ncc(-c4cc5ccccc5o4)n3n2)C1 (stereo not shown)
7.3

====

Record form. Attribute: IC50. Fill in for each entry.
Molecular target: MKNK1 (Homo sapiens, UniProt Q9BUB5, T385D)
Construct: GST (N); purchased Carna Biosciences 02-145; host or cells: insect cells (baculovirus expression system)
Assay: MKNK1 kinase high ATP assay (TR-FRET-based)
Format: biochemical
Details: Table 2c; 2 mM ATP, 15 min preincubation
Field format: number, assumed nM, no unit text.

Identify measured IC50 corresponding to CN(CCCO)c1nccc2oc(-c3cnc4ccc(O[C@H]5C[C@H](N)C5)nn34)cc12
7.3

Identify measured IC50 corresponding to C[C@H](N)COc1ccc2ncc(-c3cc4c(N(C)C5CCN(C)CC5)nccc4o3)n2n1
62

Identify measured IC50 corresponding to CCN(CCOC(C)(C)C)c1nccc2oc(-c3cnc4ccc(OC[C@@H]5COCCN5)nn34)cc12
0.5

Identify measured IC50 corresponding to CN1CCN(c2nccc3oc(-c4cnc5ccc(OCCCS(C)(=O)=O)nn45)cc23)CC1
5.3

Identify measured IC50 corresponding to CS(=O)(=O)CCCOc1ccc2ncc(-c3cc4c(N5CCCC5)nccc4o3)n2n1
14.9

Identify measured IC50 corresponding to C[C@H]1COCCN1c1nccc2oc(-c3cnc4ccc(OC[C@H]5CCC(=O)N5)nn34)cc12
0.5

====

Target: MKNK1 (Homo sapiens, UniProt Q9BUB5, T385D)
Construct: GST (N); purchased Carna Biosciences 02-145; host or cells: insect cells (baculovirus expression system)
Experiment: MKNK1 kinase high ATP assay (TR-FRET-based)
Type: biochemical
Details: Table 2c; 2 mM ATP, 15 min preincubation
pIC50: −log10 of the molar value.
Binning of pIC50 into classes: low end: < 8; middle: ≥ 8 and < 9; high end: ≥ 9

Hello team, could you let me know which band the following molecule falls into: C[C@H](N)COc1ccc2ncc(-c3cc4c(N5CCOCC5)nccc4o3)n2n1
low end

Hello team, could you let me know which band the following molecule falls into: c1cc2oc(-c3cnc4ccc(OC[C@H]5CCCCN5)nn34)cc2c(N2CCOCC2)n1 (stereo in doubt)
low end

Hello team, could you let me know which band the following molecule falls into: CCN(CCOC(C)(C)C)c1nccc2oc(-c3cnc4ccc(OC[C@H]5CCC(=O)N5)nn34)cc12
high end

Hello team, could you let me know which band the following molecule falls into: COC[C@@H]1CCCN1c1nccc2oc(-c3cnc4ccc(O[C@H](C)CN)nn34)cc12
low end

Hello team, could you let me know which band the following molecule falls into: C[C@@H]1COCCN1c1nccc2oc(-c3cnc4ccc(OCCCS(C)(=O)=O)nn34)cc12
middle

Hello team, could you let me know which band the following molecule falls into: CN(C)[C@@H]1CCN(c2nccc3oc(-c4cnc5ccc(OCCCS(C)(=O)=O)nn45)cc23)C1
middle

Hello team, could you let me know which band the following molecule falls into: COC[C@@H]1CCCN1c1nccc2oc(-c3cnc4ccc(OC[C@H]5CCC(=O)N5)nn34)cc12
low end

Hello team, could you let me know which band the following molecule falls into: C[C@H]1CN(c2nccc3oc(-c4cnc5ccc(OC[C@@H]6CCC(=O)N6)nn45)cc23)CCO1
middle

Hello team, could you let me know which band the following molecule falls into: C[C@H]1COCCN1c1nccc2oc(-c3cnc4ccc(O[C@H]5C[C@H](N)C5)nn34)cc12
middle

Hello team, could you let me know which band the following molecule falls into: CS(=O)(=O)CCCOc1ccc2ncc(-c3cc4c(N5CCOCC5)nccc4o3)n2n1
middle

Hello team, could you let me know which band the following molecule falls into: CCN(CCOC)c1nccc2oc(-c3cnc4ccc(OCCCS(C)(=O)=O)nn34)cc12
high end

Hello team, could you let me know which band the following molecule falls into: CC(C)(C)N1CCN(c2nccc3oc(-c4cnc5ccc(OCCCS(C)(=O)=O)nn45)cc23)CC1
low end

Hello team, could you let me know which band the following molecule falls into: COC[C@@H]1CCCN1c1nccc2oc(-c3cnc4ccc(OC[C@H](C)N)nn34)cc12
low end

Hello team, could you let me know which band the following molecule falls into: C[C@H](N)COc1ccc2ncc(-c3cc4c(N5CCO[C@@H](C)C5)nccc4o3)n2n1
middle

Hello team, could you let me know which band the following molecule falls into: CC1(C)CN(c2nccc3oc(-c4cnc5ccc(OC[C@H]6CCC(=O)N6)nn45)cc23)CCO1
high end

Hello team, could you let me know which band the following molecule falls into: CCN(CCOC)c1nccc2oc(-c3cnc4ccc(OC[C@@H]5CCC(=O)N5)nn34)cc12
high end

Hello team, could you let me know which band the following molecule falls into: C[C@H](N)COc1ccc2ncc(-c3cc4c(N5CCN(c6ccccc6)CC5)nccc4o3)n2n1
low end

Hello team, could you let me know which band the following molecule falls into: c1cc2oc(-c3cnc4ccc(OC[C@@H]5COCCN5)nn34)cc2c(N2CCOCC2)n1
low end

Hello team, could you let me know which band the following molecule falls into: CCN(CCOC)c1nccc2oc(-c3cnc4ccc(OCC5CCCCN5)nn34)cc12 (stereo not drawn)
low end
